Origin of measurements: patent US7183260B2

Catalogue of compounds with associated Ki
- TESTED ON: mICE (Mus musculus)
- Sequence (P29452 123-296 limits assumed): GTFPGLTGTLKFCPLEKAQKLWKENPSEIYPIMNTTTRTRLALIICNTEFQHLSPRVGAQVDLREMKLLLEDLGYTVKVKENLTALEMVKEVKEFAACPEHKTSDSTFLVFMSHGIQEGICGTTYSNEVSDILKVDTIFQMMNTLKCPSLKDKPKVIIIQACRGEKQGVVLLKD
- Sequence (P29452 315-402 limits assumed): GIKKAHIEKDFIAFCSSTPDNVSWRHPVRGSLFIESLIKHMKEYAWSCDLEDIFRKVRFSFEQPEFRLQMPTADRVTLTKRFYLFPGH
- METHOD SUMMARY: Dissociation constant Ki and irreversible rate constant k3 for irreversible inhibitors (ICE)
- Assay type: biochemical
- RECORDED CONDITIONS: continuous assay 60 min, reaction initiated by adding enzyme to substrate-inhibitor mixture
Entry rule: numbers only, all in µM.

For orientation, consider the following solved cases.
smiles_str=CC(C)[C@H](NC(=O)C(=O)NC(c1ccccc1)c1ccccc1)C(=O)N[C@@H](CC(=O)O)C(=O)COc1c(F)c(F)cc(F)c1F tested_on="mICE (Mus musculus)" endpoint=Ki obs_value=0.054
smiles_str=CC(C)[C@H](NC(=O)C(=O)Nc1cccc2ccccc12)C(=O)N[C@@H](CC(=O)O)C(=O)COc1c(F)cccc1F tested_on="mICE (Mus musculus)" endpoint=Ki obs_value=0.0074

Next up:
Entry C[C@H](NC(=O)C(=O)Nc1ccccc1-c1ccccc1)C(=O)N[C@@H](CC(=O)O)C(=O)COc1ccccc1F has what Ki?
0.046
